- ASSAYED TARGET: human c-mpl-R (human, UniProt P40238)
- ASSAY PROTOCOL: cell-based or functional assay
RECORDED ENDPOINT: TF1 Proliferation Assay: total counts tritiated thymidine incorporation, 10% supernatants (total counts)

Solved cases (2 shown):
1-332 Δ112-115 c-mpl ligand (pMON26451-3) (ligand) SPAPPACDLRVLSKLLRDSHVLHSRLSQCPEVHPLPTPVLLPAVDFSLGEWKTQMEETKAQDILGAVTLLLEGVMAARGQLGPTCLSSLLGQLSGQVRLLLGALQSLLGTQGRTTAHKDPNAIFLSFQHLLRGKVRFLMLVGGSTLCVRRAPPTTAVPSRTSLVLTLNELPNRTSGLLETNFTASARTTGSGLLKWQQGFRAKIPGLLNQTSRSLDQIPGYLNRIHELLNGTRGLFPGPSRRTLGAPDISSGTSDTGSLPPNLQPGYSPSPTHPPTGQYTLFPLPPTLPTPVVQLHPLLPDPSAPTPTPTSPLLNTSYTHSQNLSQEG : 35600
1-332 c-mpl ligand P(46)L, W(200)R (pMON26451-4) (ligand) SPAPPACDLRVLSKLLRDSHVLHSRLSQCPEVHPLPTPVLLPAVDLSLGEWKTQMEETKAQDILGAVTLLLEGVMAARGQLGPTCLSSLLGQLSGQVRLLLGALQSLLGTQLPPQGRTTAHKDPNAIFLSFQHLLRGKVRFLMLVGGSTLCVRRAPPTTAVPSRTSLVLTLNELPNRTSGLLETNFTASARTTGSGLLKRQQGFRAKIPGLLNQTSRSLDQIPGYLNRIHELLNGTRGLFPGPSRRTLGAPDISSGTSDTGSLPPNLQPGYSPSPTHPPTPLLPDPSAPTPTPTSPLLNTSYTHSQNLSQEG : 122000

P: 1-153 Δ112-115 c-mpl ligand (pMON26450) (ligand) SPAPPACDLRVLSKLLRDSHVLHSRLSQCPEVHPLPTPVLLPAVDFSLGEWKTQMEETKAQDILGAVTLLLEGVMAARGQLGPTCLSSLLGQLSGQVRLLLGALQSLLGTQGRTTAHKDPNAIFLSFQHLLRGKVRFLMLVGGSTLCVR
Q: 1-153 c-mpl ligand (pMON26448) (ligand) SPAPPACDLRVLSKLLRDSHVLHSRLSQCPEVHPLPTPVLLPAVDFSLGEWKTQMEETKAQDILGAVTLLLEGVMAARGQLGPTCLSSLLGQLSGQVRLLLGALQSLLGTQLPPQGRTTAHKDPNAIFLSFQHLLRGKVRFLMLVGGSTLCVR
Request: Between P and Q , which one shows the smaller TF1 Proliferation Assay: total counts tritiated thymidine incorporation, 10% supernatants number? Answer by stating the label of the chosen item.
Response: P
